This section presents molecules with their documented pEC50 values.
Tested on: TFEB
Assay: TFEB nuclear translocation assay
Assay type: cell-based
Settings: Homo sapiens; HeLa wt or HeLa TRPML1 KO cells, treated for 2 hrs; ratio of nuclear to ring-region TFEB intensity
pEC50: −log10 of the molar value.

Use these answered entries as a reference point.
O=S(=O)(Cc1ccccc1)N1CC2(CCCC2)c2ccccc21 = 5.00 to 5.10
Cc1ccc2c(c1)N(S(=O)(=O)c1ccc(S(=N)(=O)N(C)C)cc1)CC21CCCCC1 (centres unmarked) = ≥ 5.70
O=C(OCc1ccccc1)N1CCC2(CC1)CN(S(=O)(=O)c1ccc(C(F)F)cc1)c1cccnc12 = ≥ 5.70
CC(C)(CO)c1ccc(S(=O)(=O)N2CC3(CCCC3)c3ccccc32)cc1 = ≤ 5.00

Which pEC50 reading was recorded for the molecule CN(C)S(=O)(=O)c1ccc(S(=O)(=O)N2CC3(CCN(C(=O)C(C)(C)C)C3)c3ccccc32)cc1 (centres unmarked) ?
5.10 to 5.70

Need pEC50, item "O=C(OCc1ccccc1)N1CCC2(CC1)CN(S(=O)(=O)c1ccc(C(F)(F)F)nc1)c1ccccc12"
≥ 5.70

I am curious: what pEC50 value has been reported for "COC(=O)c1ccc(CS(=O)(=O)N2CC3(CCCC3)c3ccccc32)cc1" ?
≤ 5.00

Entry under review: "O=S(=O)(c1ccc2c(c1)OC1(CCC1)O2)N1CC2(CCCC2)c2ccccc21" . Reported pEC50?
5.10 to 5.70

Source listed as patent US20230416262A1.
